Form field: CC50 at 72 h (one value per entry).
Assay: MTS cytotoxicity assay
Type: cell-based
Details: human, HepDES19 cells, pH 7.4
Respond numerically; units are µM and should not be typed.

Illustrative cases are given below, each with its answer.
In [3]: df
Out[3]:
                                   molecule  value_measured
0  CC(=NCc1ccccc1Cl)c1c(C)cc(=O)n(O)c1O [Compound 36]            52.7
1  CC(=Nc1c(F)cccc1F)c1c(C)cc(=O)n(O)c1O [Compound 28]            52.6
2  CC(=NCc1cccc(Cl)c1)c1c(C)cc(=O)n(O)c1O [Compound 37]              34
3  CC(=NCc1cc(F)cc(F)c1)c1c(C)cc(=O)n(O)c1O [Compound 42]            82.9
4  CC(=NCc1ccc(Cl)cc1)c1c(C)cc(=O)n(O)c1O [Compound 38]            22.9

### Prompt Respond only with CC50 at 72 h recorded for CC(=Nc1ccc(F)c(F)c1)c1c(C)cc(=O)n(O)c1O [Compound 22]
### Response 100

### Prompt Respond only with CC50 at 72 h recorded for CC(=NOCc1ccccc1Cl)C1C(=O)NC(=O)NC1=O [Compound 45]
### Response 100

### Prompt Respond only with CC50 at 72 h recorded for CC(=Nc1ccccc1Cl)c1c(C)cc(=O)n(O)c1O [Compound 23]
### Response 76.8

### Prompt Respond only with CC50 at 72 h recorded for CC(=Nc1ccccc1F)c1c(C)cc(=O)n(O)c1O [Compound 21]
### Response 86.3

### Prompt Respond only with CC50 at 72 h recorded for CC(=NCc1cccc(Br)c1)c1c(C)cc(=O)n(O)c1O [Compound 34]
### Response 22.6
